readoutName: IC50 (nM)
Please give a number only; it is taken to be in nM.

In: Provide measured IC50 on Prothrombin (Homo sapiens) for `CC(=O)OC[C@]12C[C@@H]3OC(=O)[C@H](CC(=O)C=C(C)C)[C@H]3[C@]1(C)[C@@H](O)C[C@H]1C2=CC[C@@H]2[C@]1(C)CC[C@@H](OC(C)=O)[C@@]2(C)C(=O)O[C@@H]1O[C@H](CO)[C@@H](O)[C@H](O)[C@H]1O` please.
Out: 70

In: Provide measured IC50 on Prothrombin (Homo sapiens) for `CC(C)=CC(=O)C[C@H]1C(=O)O[C@H]2C[C@]3(C)C4=CC[C@@H]5[C@](C)(CC[C@H]6OC(=O)[C@@]56C)[C@H]4CC[C@@]3(C)[C@@H]21` please.
Out: 50

In: Provide measured IC50 on Prothrombin (Homo sapiens) for `CC(=O)O[C@@H]1CC[C@@]2(C)[C@@H](CC=C3[C@@H]2CC[C@@]2(C)[C@H]4[C@H](C[C@]32C)OC(=O)[C@@H]4CC(=O)C=C(C)C)[C@]1(C)C(=O)O` please.
Out: 18
